Tested on: LNCaP (androgen-sensitive) prostate cancer cell line
assay.overview: MTT cytotoxicity test, LNCaP
Format: cell-based
condition.set: 24 h, mean ± SD, read-out: IC50 determined by MTT cytotoxicity test
pIC50: −log10 of the molar value.
pIC50 listing for selected molecules.
quantity.name: pIC50

CC[C@@H](C(C)C)[C@@H](O)[C@H](O)[C@@H](C)[C@H]1CC[C@H]2[C@@H]3CC(=O)[C@H]4C[C@H](O)[C@H](O)C[C@]4(C)[C@H]3CC[C@]12C; 4.35
CC(C)[C@@H](C)[C@@H](O)[C@H](O)[C@@H](C)[C@H]1CC[C@H]2[C@@H]3COC(=O)[C@H]4C[C@H](O)[C@H](O)C[C@]4(C)[C@H]3CC[C@]12C [Brassinosteroid 6, 24-Epibrassinolide]; 4.22
